The measurements presented in this section are drawn from patent US20260116991A1.

Recorded Max MFI, one value per entry.
experimental_system: T1, monkey GPC3 on HEK293T-monkey GPC3 cells (monkey)
T1 construct: whole, on cells
assay_method_text: FACS on HEK293T-monkey GPC3 cells;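 also: flow cytometry binding of test antibodies to the cells, read as mean fluorescence intensity, with half-maximal concentration taken from fitted curves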
Value expressed in MFI; do not type the unit.

Completed entries (count: 2):
{"binder": "F2.154.1 (antibody, human IgG1, kappa, V domains shown, Human-murine chimeric antibody) VH: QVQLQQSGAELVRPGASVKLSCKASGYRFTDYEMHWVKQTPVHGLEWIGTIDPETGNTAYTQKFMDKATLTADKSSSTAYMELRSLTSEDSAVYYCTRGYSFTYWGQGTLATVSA VL: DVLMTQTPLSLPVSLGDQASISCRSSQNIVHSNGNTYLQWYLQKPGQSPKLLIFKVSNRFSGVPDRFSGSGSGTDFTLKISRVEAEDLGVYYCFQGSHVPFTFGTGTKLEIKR", "unit_abbrev": "MFI", "value_measured": 12400}
{"binder": "F1.111.11 (antibody, human IgG1, kappa, V domains shown, Human-murine chimeric antibody) VH: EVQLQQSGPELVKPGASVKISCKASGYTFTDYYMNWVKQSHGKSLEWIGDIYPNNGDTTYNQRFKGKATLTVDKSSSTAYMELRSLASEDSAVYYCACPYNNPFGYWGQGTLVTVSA VL: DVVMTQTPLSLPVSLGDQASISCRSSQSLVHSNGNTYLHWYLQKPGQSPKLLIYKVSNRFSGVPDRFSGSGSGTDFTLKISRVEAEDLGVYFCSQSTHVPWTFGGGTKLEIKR", "unit_abbrev": "MFI", "value_measured": 4450}

Enquiry: Give the reported Max MFI for this binder. F2.169.2 (antibody, human IgG1, kappa, V domains shown, Human-murine chimeric antibody) VH: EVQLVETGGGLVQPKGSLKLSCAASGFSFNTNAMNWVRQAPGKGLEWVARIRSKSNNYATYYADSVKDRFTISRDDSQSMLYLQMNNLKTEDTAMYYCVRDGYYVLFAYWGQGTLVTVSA VL: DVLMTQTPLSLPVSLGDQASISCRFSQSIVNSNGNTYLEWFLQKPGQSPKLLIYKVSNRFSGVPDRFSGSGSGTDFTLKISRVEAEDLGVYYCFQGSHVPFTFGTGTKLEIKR
Return: 9880

Enquiry: Give the reported Max MFI for this binder. F1.83.6 (antibody, human IgG1, kappa, V domains shown, Human-murine chimeric antibody) VH: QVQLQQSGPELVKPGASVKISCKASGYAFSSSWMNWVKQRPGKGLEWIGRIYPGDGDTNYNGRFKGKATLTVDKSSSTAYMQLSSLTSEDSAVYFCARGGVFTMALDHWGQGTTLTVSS VL: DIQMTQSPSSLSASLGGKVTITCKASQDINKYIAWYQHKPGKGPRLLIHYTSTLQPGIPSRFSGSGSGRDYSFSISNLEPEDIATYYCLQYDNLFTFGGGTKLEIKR
Return: 5880

Enquiry: Give the reported Max MFI for this binder. F4.13.7 (antibody, human IgG1, kappa, V domains shown, Human-murine chimeric antibody) VH: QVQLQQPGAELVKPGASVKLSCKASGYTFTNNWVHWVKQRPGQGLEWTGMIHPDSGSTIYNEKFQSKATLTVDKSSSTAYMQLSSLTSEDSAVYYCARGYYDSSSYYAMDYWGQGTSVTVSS VL: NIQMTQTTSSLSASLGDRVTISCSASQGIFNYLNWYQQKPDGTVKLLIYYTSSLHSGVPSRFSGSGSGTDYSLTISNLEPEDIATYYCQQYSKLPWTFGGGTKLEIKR
Return: 44100
